Reference source: the supplement of paper PMC7411054

# Test system: WPMY1-ACTB-RAB5A
# Assay Explanation: phenotypically active (imaging signature differs from DMSO and reproducible) at any of 0.3-9 uM (binary (1 = active, 0 = inactive)); higher = active
# Cond: treatment time: 24 h
In this exercise, the only acceptable responses are active, inactive

{"Compound": "Fc1ccccc1Nc1nc2nonc2nc1Nc1ccccc1F", "Group Label": "active"}

Would you kindly look at the next entry?
Assay result, entry C[C@H](NC(=O)c1sccc1OCc1ccc(Cl)cc1)c1ccccc1 — outcome?
active

* * *

# Test system: A549-ACTB-RAB5A
# Assay Explanation: phenotypically active (imaging signature differs from DMSO and reproducible) at any of 0.3-9 uM (binary (1 = active, 0 = inactive)); higher = active
# Cond: treatment time: 24 h
Structures can show the parent of a compound that is named as a salt.
In this exercise, the only acceptable responses are active, inactive

{"Compound": "O=C(/C=C/N1C[C@H]2C[C@@H]1CN2c1ccccn1)c1ccccc1O", "Group Label": "inactive"}
{"Compound": "COc1ccc(-c2cc3c(C)nc(N)nc3n([C@H]3CC[C@H](OCCO)CC3)c2=O)cn1", "Group Label": "active"}
{"Compound": "CC[N+](C)(C)c1cccc(O)c1", "Group Label": "inactive"}
{"Compound": "COC(=O)/C=C/c1cccc(N(Cc2ccc(-c3ccc(N(C)C)cc3)cc2)C(=O)C2CCCCC2)c1", "Group Label": "inactive"}
{"Compound": "COC(=O)c1sccc1S(=O)(=O)Nc1ccc(Nc2ccccc2)cc1OC", "Group Label": "inactive"}
{"Compound": "O=C(O)c1cc(/N=N/c2ccc(S(=O)(=O)Nc3ccccn3)cc2)ccc1O", "Group Label": "inactive"}
{"Compound": "CC(C)Cc1ccc(C(C)C(=O)O)cc1 (stereo not drawn)", "Group Label": "inactive"}
{"Compound": "Cc1cc(/N=N/c2cc(S(=O)(=O)O)c(C)cc2C)c(N)cc1O [Ischemin sodium salt]", "Group Label": "inactive"}
{"Compound": "COc1cc([C@@H]2c3cc4c(cc3[C@@H](O[C@@H]3O[C@@H]5CO[C@@H](c6cccs6)O[C@H]5[C@H](O)[C@H]3O)[C@H]3COC(=O)[C@H]23)OCO4)cc(OC)c1O [teniposide]", "Group Label": "active"}
{"Compound": "CCOC(=O)c1c2c3c(cccc3[nH]c1=O)C(=O)c1ccccc1-2", "Group Label": "active"}

Assay result, entry Clc1ccccc1C(c1ccccc1)(c1ccccc1)n1ccnc1 — outcome?
active

Then what about the compound CC(C)c1cnn2c(NCc3ccccc3)cc(NCCCCCCN)nc12 [BS 181 dihydrochloride] ?
active

Then what about the compound Cc1c(C(=O)N2CCOc3ccc(-c4ccc(N)nc4)cc3C2)ccc(S(C)(=O)=O)c1F ?
active

Then what about the compound O=C1Nc2ccc(F)cc2C1=C1Nc2ccccc2C1=NO ?
active

Then what about the compound O=C(Nc1cccnc1)N1CCC(Cc2cccc(Oc3ccc(C(F)(F)F)cn3)c2)CC1 ?
active

Then what about the compound CCCCCCC(=O)OC1CC(C)(C)NC(C)(C)C1 [TMPH hydrochloride] ?
inactive

Then what about the compound C[C@H](CS)C(=O)N1CCC[C@H]1C(=O)O ?
inactive

Then what about the compound CC(c1cc2ccccc2s1)N(O)C(N)=O (stereo not drawn) ?
inactive

Then what about the compound COc1ccc([C@H]2CNC(=O)C2)cc1OC1CCCC1 [(S)-(+)-Rolipram] ?
inactive

Then what about the compound C[N+]1(C)CCC(=C(c2ccccc2)c2ccccc2)CC1 ?
inactive

Then what about the compound COc1c(OC2OC(CO)[C@@H](O)[C@H](O)[C@H]2O)cc2c(c1OC)-c1ccc(OC)c(=O)cc1[C@@H](NC(C)=O)CC2 (stereo partly drawn) [Colchicoside] ?
inactive
